Recorded values, source PubChem BioAssay.

test system: TRPC4 beta (transient receptor potential cation channel C4), mouse; experiment: potentiation of DAMGO EC20 TRPC4 response – cell-based, Fluo-4, HEK293 TRPC4beta/mu-opioid, confirmation (AID 2555); conditions: DAMGO EC20, Fluo-4 calcium flux, at 10 µM
The source made the active and inactive calls.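 How the source made its calls: active means primary screen hit whose calcium fluorescence ratio, in both repeats, exceeds the weak agonist control mean by 3 SD; inactive means the rest.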
Give your call using only these classes: active, inactive

Previously resolved entries follow.
CCN(CC)CCN(Cc1cc2cc3c(cc2[nH]c1=O)OCCO3)C(=O)NC1CCCCC1 : inactive
COc1ccc(C2CC(c3ccccc3)Nc3nc(NC(=O)c4cccs4)nn32)cc1 (configuration not stated) : inactive
Cc1cc(Br)c(NC(=O)CN(C)CCOc2ccccc2)c(Br)c1 : inactive

For O=c1[nH][nH]c(-c2ccccc2)c1C=Nc1ccc(Cl)cc1 , what call appears in the results of this test?
inactive

What call does the record list for O=C(OCC(=O)N1CCOCC1)c1cccc(S(=O)(=O)N2CCCc3ccccc32)c1 ?
inactive

---

tested on: TRPC4 beta (transient receptor potential cation channel C4), mouse; experiment: potentiation of DAMGO EC20 TRPC4 response – cell-based, Fluo-4, HEK293 TRPC4beta/mu-opioid, confirmation (AID 2555); settings: DAMGO EC20, Fluo-4 calcium flux, at 10 µM
Activity calls are given as the source filed them.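 Rule for the calls: active = primary screen hit whose calcium fluorescence ratio, in both repeats, exceeds the weak agonist control mean by 3 SD; inactive = the rest.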
Output constraint: value belongs to y for active, n for inactive

# count of solved cases: 5
COC(=O)c1cccc(NC(=S)Nc2cccc(Cl)c2Cl)c1 : n
OC(COc1ccccc1)CN1C2=NCCCN2c2ccccc21 (centres undefined) : n
CCCC[n+]1c2ccccc2cc2ccccc21 : n
COc1cccc(C(=O)C2CCCN(Cc3cccn3-c3ccccn3)C2)c1 (centres undefined) : n
C/C(=C\c1cccc(Cl)c1Cl)C(=O)c1c(C)cc(C)[nH]c1=O : n

State the result this test recorded for Cc1cc(Nc2ccc(C)c(C)c2)c2ccccc2n1 .
n

Identify the outcome logged in this assay for the compound shown: c1csc(-c2nc(NCC3CCCO3)c3ccccc3n2)c1 (centres undefined)
n

Tell me the recorded outcome of this test for O=C(NC1CCCCC1)N1CCN(C(c2ccccc2)c2ccccc2)CC1 .
n

Query: recorded result category for C=CCc1ccccc1OCC(CN1CCCCC1)OC(C)=O (centres undefined) in this test
n

Assay outcome for COc1ccc(NS(=O)(=O)c2cccc(C(=O)N3CCN(Cc4cc(OC)ccc4OC)CC3)c2)cc1 : what was it?
n

Outcome? O=C1C=CC(=O)N1CCNc1ncc(C(F)(F)F)cc1Cl
n

Call for entry CC(=O)Nc1ccc(S(=O)(=O)NC2=C(N3CCN(Cc4ccccc4)CC3)C(=O)c3ccccc3C2=O)cc1 :
n

Given Cc1ccc(Cn2c(=N)c(C(=O)NCCN3CCOCC3)cc3c(=O)n4ccccc4nc32)cc1 , state the outcome it received in this test.
y

Which result was noted for this compound in the test: Cc1sc2ncnc(NCC(c3ccco3)N3CCCC3)c2c1C (centres undefined)
n

---

tested on: TRPC4 (mouse), co-expressed with 5HT1a in HEK293; test: enhancement of serotonin-evoked TRPC4 response – cell-based, second counter screen, HEK293 TRPC4/5HT1a, Fluo-4, counter-screen for TRPC4 potentiator project, confirmation (AID 434979); settings: Fluo-4 calcium flux, at 10 µM, serotonin added at its EC20 dose
Calls of active or inactive are those of the source.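 The calls were made as follows: active = signal rise over 3 SD above mean of control wells given weak agonist, in both repeats and first screen; inactive = the rest.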
Your response should consist of one outcome taken from y (active), n (inactive)

How did this test come out for COc1ccc(-n2cc(CNCc3cnc4ccccn34)c(-c3cccc(F)c3)n2)cc1 ?
n

Could you please tell me the result logged for c1ccc(Nc2c3c(nc4ccccc24)CCC3)cc1 in this assay?
n

# fetch the recorded call for OCCNc1nc(NCc2ccccc2)c2ccccc2n1 here
n

What outcome does the record of this test show for CN(C)c1ccc([N+](=O)[O-])cc1C(=O)NCC(c1ccco1)N(C)C (stereo unspecified) ?
n

Could you please tell me the result logged for COc1cc2cc(C)c(SCC(=O)N3CCN(C(=O)c4ccco4)CC3)nc2cc1OC in this assay?
n

What did this assay record as the result for CCCc1nc2oc3c(NCCCN(C)C)ncnc3c2c2c1CCCC2 ?
n

---

tested on: TRPC4 (transient receptor potential cation channel C4 beta), mouse; assay: potentiation of DAMGO EC20 TRPC4 response – cell-based, second round, Fluo-4, HEK293 TRPC4beta/mu-opioid, 1 µM, confirmation (AID 2554); settings: DAMGO EC20, Fluo-4 calcium flux, at 1 µM; active compounds read high
The source made the active and inactive calls.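 The calls were made as follows: active = primary screen hit whose fluorescence ratio, in both repeats, exceeds the weak agonist control mean by 3 SD; inactive = the rest.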
ENDPOINT_LABEL: potentiation

Below, 10 molecules whose answers are already recorded.
COc1cc(OC)c(OC)cc1CCC(C)NCCC(c1ccccc1)c1ccccc1 (centres undefined) : inactive
Cc1cc(N2CCCCC2)nc2ccccc12 : inactive
Cc1cc(C)c2[nH]c(=O)c(CN(Cc3cccnc3)C(=S)NCCCN(C)C)cc2c1 : inactive
COc1ccc(-c2cc(C3CCN(c4cc(Cl)nc(N)n4)CC3)[nH]n2)cc1 : inactive
Cc1cccc(C(=O)Nc2sc(-c3ccccc3)cc2C(=O)O)c1 : inactive
OCCNc1nc2ccccc2n1CCN1CCCCC1 : inactive
Cc1ccc(C)c(N(CC(=O)NC2CCCC2)C(=O)c2csnn2)c1 : inactive
COC(=O)c1cccc2c1-c1ccccc1/C2=N/O : inactive
CCN(Cc1ccccc1)S(=O)(=O)c1ccc(C(=O)N(CCCN(C)C)c2nc3c(F)cccc3s2)cc1 : inactive
O=C(Nc1nc(N2C(=O)c3ccccc3C2=O)n(-c2ccccc2)n1)c1ccc(Cl)cc1 : inactive

Now, please, on to the next molecule.
Give potentiation only, for CCOC(=O)COc1cc(-n2c(=S)[nH]c3ccccc3c2=O)c(Cl)cc1Cl , using TRPC4 (transient receptor potential cation channel C4 beta), mouse data.
8% (active)

---

target: Short transient receptor potential channel 4 (Mus musculus); assay: calcium flux activators in TRPC4/5HT1a cells, counter-screen for TRPC4 activator project, cell-based, second counter screen, HEK293 TRPC4/5HT1a, Fluo-4 (AID 434977); details: Fluo-4 calcium flux, at 10 µM
Active and inactive are the calls of the source.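 How the source made its calls: active means calcium signal rise above buffer-control mean plus 5 SD in both duplicates, and also a hit in the primary screen; inactive means the rest.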
Answer with one of the outcomes given here: True (active), False (inactive)

Example results:
COc1ccc(C(CNc2ccc(C(F)(F)F)cn2)N(C)C)cc1OC (stereo not given) : False
COc1ccc(C(CNC(=O)COc2ccccc2OC)N(C)C)cc1OC (stereo not given) : False
CCCc1noc2c1/C(=N\O)CC(CC(C)SCC)C2 (stereo not given) : False
CC(=O)c1c(O)c(C)c(O)c2c1OC1=CC(=O)C(C(C)=O)C(=O)[C@@]12C (stereo not given in full) : True

Which result was noted for this molecule in the test: O=C(NCCCN1CCN(CCCNC(=O)c2cccc(Cl)c2)CC1)c1cccc(Cl)c1
False

Call for entry COc1ccc(-c2nn(-c3ccccc3C)cc2CNC(C)c2cn(C)nc2C)cc1F (stereo not given) :
False

What outcome does the record of this test show for CC(=O)N1N=C(c2ccc(Br)cc2)OC1(C)CC(=O)Nc1ccccc1 (stereo not given) ?
False

# outcome recorded in this test, key = CC(C)CN(CC(C)C)c1nc(N)c(C#N)c(CC#N)c1C#N
False

Recorded test outcome, item CSc1ccc(S(=O)(=O)NCC(=O)OCC(=O)N(C)Cc2ccccc2)cc1[N+](=O)[O-]
False

Called result for O=C(CSc1nc2[nH]ncc2c(=O)n1-c1ccccc1Br)NCc1ccccc1Cl
False

---

tested on: TRPC4 (transient receptor potential cation channel C4 beta), mouse; assay: potentiation of DAMGO EC20 TRPC4 response – cell-based, second round, Fluo-4, HEK293 TRPC4beta/mu-opioid, 1 µM, confirmation (AID 2554); settings: DAMGO EC20, Fluo-4 calcium flux, at 1 µM
Activity calls are given as the source filed them.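 The calls were made as follows: active = primary screen hit whose fluorescence ratio, in both repeats, exceeds the weak agonist control mean by 3 SD; inactive = the rest.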
// one of yes (1) (active), no (0) (inactive), no free text

The following compounds have reported results that may help.
CCN1CCCC(OC(=O)c2cc(-c3ccccc3Cl)nc3ccccc23)C1 (configuration not stated) : no (0)
O=C1S/C(=C\c2ccc(N3CCOCC3)o2)C(=O)N1Cc1c(F)cccc1Cl : no (0)
CC1=NN(C(=O)COc2ccc(C)c(C)c2)C(O)(c2ccc(Cl)cc2)C1 (configuration not stated) : no (0)
COc1ccc(C2C(C(C)=O)=C(O)C(=O)N2c2ccc(Br)cc2)cc1 (configuration not stated) : no (0)
C/C=C/Cn1c(SCCCc2ccccc2)nc2c1c(=O)[nH]c(=O)n2C : yes (1)
CC1(C(=O)NC(=S)NNC(=O)c2ccncc2)CCCCC1 : no (0)
CNCCOc1ccc(Cl)c(Cl)c1 : yes (1)
CC(C)Oc1ccc(CCC(=O)NNC(=S)NCc2ccccc2)cc1 : no (0)
O=c1[nH][nH]c(-c2ccccc2)c1C=Nc1ccc(Cl)cc1 : no (0)
NS(=O)(=O)c1ccc(Oc2ccc(S(N)(=O)=O)cc2)cc1 : no (0)

Which outcome was entered for the compound Cc1ccccc1NC(=S)NCC(c1cccnc1)N(C)C (configuration not stated) in this test?
no (0)

Please share the test call associated with Cc1ccc(-n2nc(-c3cccs3)cc2C(=O)NCC2CCCO2)c(C)c1 (configuration not stated) .
no (0)

Query: recorded result category for O=C(C1=C[C@H](c2ccc(C(F)(F)F)cc2)C[C@H](OCCCCO)O1)N1CCOCC1 in this test
no (0)

Hey, what did the test say about COc1ccccc1OCC(=O)Nc1ccc(Cl)cc1 ?
no (0)

Would you mind telling me which call this test gave CN1CCN(c2ccc(NC(=O)c3ccc(Br)o3)cc2)CC1 ?
no (0)
